Test system: NCI-H23 lung
Experiment: NCI tumour cell line growth inhibition, 48 h
Endpoint Name: GI50

Some solved cases for reference:
Compound | Endpoint Name | Result
CCC(=O)c1c(C(F)(F)F)n([O-])c2cc(N3CCNCC3)c(F)cc2[n+]1=O | GI50 | 3420 nM
CSc1nc(N)cc(Oc2ccc(-c3nc(Nc4cccc(C(F)(F)F)c4)n[nH]3)cc2)n1 | GI50 | 893 nM
O=c1[nH]cnc2c1ccn2C1OC(CO)C(O)C1O (centres undefined) | GI50 | 6010 nM
Clc1ccc(CNc2ccc3nc(CCC4CCCCC4)[nH]c3c2)cc1 | GI50 | 2070 nM

Ask | Request - read-out GI50 | tested on NCI-H23 lung | compound `O=C1Nc2ccccc2/C1=C\c1c[nH]c2ccc(Br)cc12`
Reply | 1920 nM

Ask | Request - read-out GI50 | tested on NCI-H23 lung | compound `CCN(CC)c1ccc(/C=N/NC(=O)c2ccc(S(C)(=O)=O)cc2)c(O)c1`
Reply | 537 nM
